# experiment-summary: Primary qHTS for inhibitors of nuclear receptor binding SET domain protein 2 (NSD2) in an isogenic RCH-ACV NSD2 p.E1099K mutant (9B) (AID 1645876); further: nearly all actives have a fitted effect of over 70% in size
# test-context: RCH-ACV (leukaemia line) NSD2 E1099K (9B) viability, CellTiter-Glo, 72 h; series mostly up to 44.9 µM
Inconclusive results are not listed. The source made the active and inactive calls. The call rests on the fitted dose curve; in most records, active means well fitted inhibition curve with a large enough effect; inconclusive means small, poorly fitted or top-dose-only effect; inactive means flat fitted curve, though single readings scatter.
Tick one outcome: label 1 (active), label 0 (inactive)

Entry `COc1ccc(COc2ccc(Cc3cnc(N)nc3N)cc2OC)cc1` : call = ?
label 0

Entry `Cc1cc2cc(Oc3ccnc(Nc4cccc(CS(=O)(=O)NCCN(C)C)c4)n3)ccc2[nH]1` : call = ?
label 1

Entry `NC1=N[C@@]2(c3cc(NC(=O)c4ccc(F)cn4)ccc3F)COC[C@H]2CS1` : call = ?
label 0

* * *

# Test system: ATS95
# experiment-summary: qHTS profiling for inhibitors of Plasmodium falciparum proliferation (AID 504749); further: nearly all actives have a fitted effect of over 60% in size; further: potency means the concentration at half of the fitted maximal effect
# test-context: P. falciparum in erythrocytes, SYBR Green DNA, 72 h; series mostly up to 28.7 µM
Records with an inconclusive call do not appear. Active and inactive are the calls of the source. The call rests on the fitted dose curve; in most records, active means well fitted inhibition curve with a large enough effect; inconclusive means small, poorly fitted or top-dose-only effect; inactive means flat fitted curve, though single readings scatter.
readout: Potency

The compound CN1C[C@H](C(=O)N[C@]2(C)O[C@@]3(O)C4CCCN4C(=O)[C@H](Cc4ccccc4)N3C2=O)C[C@@H]2c3cccc4[nH]cc(c34)C[C@H]21 (stereo partly specified) , tested on ATS95, showed Potency of 7.08 µM (active)

The compound CC(C)C[C@H]1C(=O)N2CCCC2[C@]2(O)O[C@](NC(=O)[C@@H]3C=C4c5cccc6[nH]c(Br)c(c56)C[C@H]4N(C)C3)(C(C)C)C(=O)N12 (stereo partly specified) , tested on ATS95, showed Potency of 5.01 µM (active)

The compound `Oc1ccc(/C=C\c2cc(O)cc(O)c2)cc1` , tested on ATS95, showed Potency of inactive

The compound `CC(/C=C1\SC(=S)N(CC(=O)O)C1=O)=C\c1ccccc1` , tested on ATS95, showed Potency of inactive

The compound CN=C(N)NCCCC(N)C(=O)O (stereo unspecified) , tested on ATS95, showed Potency of inactive

Would you kindly look at the next entry?
The compound CC(C)(C)[C@]1(O)CCN2CC3c4ccccc4CCc4cccc(c43)[C@@H]2C1 (stereo partly specified) , tested on ATS95, showed Potency of 10 µM (active)

* * *

# experiment-summary: qHTS drug screen for cell cycle checkpoint inhibitors in PARPi-resistant BRCA-mutant ovarian cancer cell lines. (AID 1963452)
# test-context: PEO1/OlaR viability, CellTiter-Glo luminescence, 96 h; measured here: PEO1 parental Z-AUC; stronger effect = lower value
Z-AUC class ranges: range 1 (below -0.7), range 2 (-0.7 to below 0.3), range 3 (0.3 or more)

Form: Item = `C=CC(=O)N1CC(N2CCN(C(=O)CNc3cc(C4(C)CC4)c(Cl)cc3O)CC2)C1` ; Class = ?
range 2

Form: Item = `CO[C@H]1/C=C/O[C@@]2(C)Oc3c(C)c(O)c4c(O)c(c5c(c4c3C2=O)=NC2(CCN(CC(C)C)CC2)N=5)NC(=O)/C(C)=C/C=C/[C@H](C)[C@H](O)[C@@H](C)[C@@H](O)[C@@H](C)[C@H](OC(C)=O)[C@@H]1C` ; Class = ?
range 3

Form: Item = `C[C@@]12C(=O)OC(=O)[C@]1(C)[C@H]1CC[C@@H]2O1` ; Class = ?
range 3

Form: Item = `CCC[C@H](NC(=O)/C(C#N)=C/c1cccc(Br)n1)c1ccccc1` ; Class = ?
range 2

* * *

# tested-system: Calcium and integrin-binding protein 1 (Homo sapiens) (UniProt Q99828)
# Sequence (Q99828 whole entry, looked up): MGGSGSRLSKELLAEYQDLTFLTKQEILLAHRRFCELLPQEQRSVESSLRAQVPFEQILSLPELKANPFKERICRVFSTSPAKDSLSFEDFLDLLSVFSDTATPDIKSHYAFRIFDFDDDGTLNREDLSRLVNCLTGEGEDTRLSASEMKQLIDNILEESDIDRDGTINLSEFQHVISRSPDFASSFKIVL
# experiment-summary: Primary qHTS for Identification of Calcium Integrin Binding Protein 1 (CIB1) Competitor (AID 1508620);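 further: GST tagged CIB1 binding a fluorescein labelled alphaIIb integrin peptide tracer; top concentration of the series differs between compounds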
# test-context: CIB1-GST / FITC-alphaIIb peptide fluorescence polarization; series mostly up to 114 µM
Records with an inconclusive call do not appear. Calls of active or inactive are those of the source. Calls follow the shape of the dose curve; as a rule, active = well fitted inhibition curve with a large enough effect; inconclusive = small, poorly fitted or top-dose-only effect; inactive = flat fitted curve, though single readings scatter.
readout: outcome

Entry under test: `Cc1cc(C)n2ncc(C(=O)Nc3cc(Cl)cc(Cl)c3)c2n1` . Its outcome was inactive

Entry under test: `CC(C)(C)OC(=O)NC1CCN(c2nc(-c3ccc(Br)cc3)cs2)CC1` . Its outcome was inactive

Entry under test: `O=S(=O)(c1ccc2c(c1)OCCO2)N1CCN(S(=O)(=O)c2ccc3nc(Cl)c(Cl)nc3c2)CC1` . Its outcome was inactive

Entry under test: `Cc1cn([C@H]2C[C@H](N[S+](=O)([O-])Cc3cccc(Cl)c3)[C@@H](CO)O2)c(=O)[nH]c1=O` . Its outcome was inactive

Entry under test: N=c1c2c(ccn1-c1ccccc1)Oc1ccc3ccccc3c1C2c1ccccc1 (stereo not given) . Its outcome was inactive

---
Entry under test: `Cn1nnnc1Sc1ncnc2scc(-c3ccccc3Br)c12` . Its outcome was inactive

Entry under test: `O=C(Nc1nnc(-c2ccncc2)s1)NC12CC3CC(CC(C3)C1)C2` . Its outcome was inactive

Entry under test: CC(Cc1cnccn1)Nc1cnc2c(O)ccc(C(=O)O)c2c1 (stereo not given) . Its outcome was inactive

Entry under test: `COc1ccc(-c2nc3ccc(Cl)cc3c(=O)n2Cc2ccccc2)cc1COc1ccc(NC(C)=O)cc1` . Its outcome was inactive

Entry under test: `CCCn1c(C)nc2c(NCCCCN3CCCC3)nc(C)nc21` . Its outcome was inactive

* * *

Parameter Z-AUC: see the listing below.
# experiment-summary: qHTS drug screen for cell cycle checkpoint inhibitors in PARPi-resistant BRCA-mutant ovarian cancer cell lines. (AID 1963452)
# test-context: PEO1/OlaR viability, CellTiter-Glo luminescence, 96 h; measured here: PEO1 parental Z-AUC; stronger effect = lower value
API note: the answer field is a bare number with no unit suffix.

Example molecules with recorded Z-AUC:
Entry under test: `C=CC(=O)N1CC/C(=C\c2ccc(F)c([N+](=O)[O-])c2)C(=O)/C(=C/c2ccc(F)c([N+](=O)[O-])c2)C1` . Its Z-AUC was -2.29

Entry under test: `CCNCCS(=O)(=O)NC[C@@]1(c2ccccc2)SC(NC(=O)C(C)(C)C)=NN1C(=O)C(C)(C)C` . Its Z-AUC was -2.33

Entry under test: `CCN(CC)C(=O)Cc1csc(NS(=O)(=O)c2cccc(Cl)c2C)n1` . Its Z-AUC was 0.835

Entry under test: `Cc1c(-c2c(-c3ccc(F)o3)sc3ncnc(O[C@@H](Cc4ccccc4OCc4ccnn4CC(F)(F)F)C(=O)O)c23)ccc(OCCN2CCN(C)CC2)c1Cl` . Its Z-AUC was 0.964

---
Entry under test: C[C@H]1CC2[C@@H]3CCC4=CC(=O)C=C[C@]4(C)[C@@]3(F)[C@@H](O)C[C@]2(C)[C@@]1(O)C(=O)CO (some centres not stated) . Its Z-AUC was -0.45

Entry under test: COc1ccc(-c2oc3c(CC=C(C)C)c(OC4O[C@H](CO)[C@@H](O)[C@H](O)[C@H]4O)cc(O)c3c(=O)c2OC2O[C@@H](C)[C@H](O)[C@@H](O)[C@H]2O)cc1 (some centres not stated) . Its Z-AUC was 0.0996

Entry under test: `N=C1CCCN1Cc1[nH]c(=O)[nH]c(=O)c1Cl` . Its Z-AUC was 0.0295

* * *

# experiment-summary: A2780 Cisplatin Sensitive Ovarian Cancer Cell Toxicity qHTS against the NCATS CANVASS Library (AID 1347353); further: nearly all actives have a fitted effect of over 60% in size; further: potency means the concentration at half of the fitted maximal effect
# test-context: A2780 ovarian cancer viability, ATPLite luminescence, 72 h; series mostly up to 46.1 µM
Records with an inconclusive call do not appear. Calls of active or inactive are those of the source. The call rests on the fitted dose curve; in most records, active means well fitted cell-killing curve with a large enough effect; inconclusive means small, poorly fitted or top-dose-only effect; inactive means flat fitted curve, though single readings scatter.
readout: Potency

Example compounds with recorded Potency:
Entry under test: `CC1=C[C@H]2[C@H]3C(=O)C(c4ccc(O)cc4)=C[C@@]3(c3ccc(O)cc3)[C@@H]1C(=O)[C@]2(C)O` . Its Potency was 0.418 µM (active)

Entry under test: CCC(C)=C1OC(=O)[C@H](C)[C@H](O)[C@H](Cc2cccnc2)NC(=O)C(NC(=O)c2ncccc2O)C(C)OC1=O (stereo partly drawn) . Its Potency was inactive

Entry under test: `C=C(C)C(=O)O[C@H]1C[C@@]2(C)OC(=CC2=O)/C(C)=C\[C@H]2OC(=O)C(=C)[C@H]12` . Its Potency was 0.662 µM (active)

Entry under test: `C/C1=C/[C@@H](C)[C@H](O)C/C=C/CC/C=C/C(=O)O[C@@H]1[C@H](C)C(=O)CCCC1CC(=O)NC(=O)C1` . Its Potency was 10.5 µM (active)

Entry under test: C=CC(CCCCC)C1C(=O)NC(=O)C1C(=O)C1C(/C=C/C)C=CC2CC(C(=O)O)CC(C)C21 (stereo not drawn) . Its Potency was 7.43 µM (active)

Entry under test: `C/C=C1/C2=CCCN3C(=O)O[C@H]([C@H]1O)[C@H]23` . Its Potency was inactive

Entry under test: `C=C1CC[C@@H](Br)C(C)(C)[C@]12CC=C(C)C(=O)C2` . Its Potency was inactive

Entry under test: `COC(=O)c1cccc2oc(-c3cccc4oc(-c5c(C)cccc5O)nc34)nc12` . Its Potency was 3.32 µM (active)

Entry under test: `CCCc1c2c([nH]c(=O)c1C)C(=O)c1[nH]c(=O)c(C)c(CCC)c1C2=O` . Its Potency was 14.8 µM (active)

Entry under test: `C/C1=C/[C@@H](C)[C@H](O)[C@@H](O)/C=C/CC/C=C/C(=O)O[C@@H]1[C@H](C)C(=O)CCCC1CC(=O)NC(=O)C1` . Its Potency was inactive

---
Entry under test: `COc1cc([C@@H]2c3cc4c(cc3C[C@@]3(O[C@@H]5O[C@H](CO)[C@@H](O)[C@H](O)[C@H]5O)COC(=O)[C@H]23)OCO4)cc(OC)c1OC` . Its Potency was 0.0372 µM (active)

Entry under test: COC12OC1(C13OC1(OC)C(=O)c1cc4cc(C)oc(=O)c4c(O)c1C3O)C(O)c1c(cc3cc(C)oc(=O)c3c1O)C2=O (stereo not drawn) . Its Potency was inactive

Entry under test: `CC[C@H]1[C@@H](C)[C@@H](c2cc(OC)c(OC)cc2OC)[C@H](C)[C@@H](c2cc(OC)c(OC)cc2OC)[C@@]12C=C(OC)C(=O)C=C2OC` . Its Potency was 9.35 µM (active)
